- Tested on: SK-MEL-28 melanoma
- METHOD_NOTES: NCI tumour cell line growth inhibition, 48 h
MEASUREMENT_LABEL: GI50

## Task State the measured GI50 (SK-MEL-28 melanoma) of "CNC(=O)c1cc(Oc2ccc3nc(NC(=O)Nc4cc(C(F)(F)F)cc(C(F)(F)F)c4)sc3c2)ccn1"
## Result 1290 nM

## Task State the measured GI50 (SK-MEL-28 melanoma) of COc1cc(/C=C2\CC3C4CCC5=CC(=O)CC[C@]5(C)C4CC[C@]3(C)C2=O)ccc1OCCN1CCCCC1 (some centres undefined)
## Result 2590 nM

## Task State the measured GI50 (SK-MEL-28 melanoma) of "Cc1nc2cc(Nc3nc(Nc4ccc(F)cc4)nc(N4CCCC4)n3)ccc2n1Cc1ccccc1"
## Result 1880 nM

## Task State the measured GI50 (SK-MEL-28 melanoma) of "O=C(Nc1nc(-c2ccccc2Cl)cs1)c1cc(-c2ccc(Cl)cc2)nc2ccc(Cl)cc12"
## Result 5610 nM

## Task State the measured GI50 (SK-MEL-28 melanoma) of "CN1CCN(Cn2nc(-c3cc(F)c(Cl)cc3Cl)oc2=S)CC1"
## Result 28600 nM

###

- Tested on: SN12C renal
- METHOD_NOTES: NCI tumour cell line growth inhibition, 48 h; in the data active = GI50 below about 0.43 µM; inactive = the rest
Would you mind answering with one of these outcomes? active, inactive

Answered cases to consult:
Nc1nc(N)c2nc(CNc3ccc(C(=O)NC(CCNC(=O)c4ccccc4C(=O)O)C(=O)O)cc3)cnc2n1 (stereo not drawn); active
O=[N+]([O-])c1cccc([I+]c2ccccc2)c1; inactive
Cn1c(=O)c(-c2c(Cl)cccc2Cl)cc2cnc(Nc3ccc(I)cc3)nc21; inactive
CN1CCN(Cn2nc(-c3cc(F)c(Cl)cc3Cl)oc2=S)CC1; inactive
COc1ccc2c(c1)C(=O)c1c-2c(OCCN2CCCCC2)nc2ccc(OC)cc12; inactive
Cc1nc2cc(Nc3nc(Nc4ccc(F)cc4)nc(N4CCCC4)n3)ccc2n1Cc1ccccc1; inactive

## Task Which outcome was entered for the compound "Clc1ccc(Nc2ncnc3c2sc2ncccc23)c(Cl)c1" in this test?
## Result active

## Task Which outcome was entered for the compound "N/C(=N\C(N)=N\c1nc2ccccc2s1)c1ccnc(Br)c1" in this test?
## Result inactive

###

- Tested on: MDA-MB-435
Would you mind answering with one of these outcomes? active, inactive

Answered cases to consult:
Cc1ccnc(NC(c2ccccc2)c2ccc3cccnc3c2O)c1 (stereo not drawn); inactive
C=CCCCC(O)c1ccc(C(O)c2cnc3ccccc3c2)o1 (stereo not drawn); inactive

## Task Which outcome was entered for the molecule "CN1CCN(Cn2nc(-c3cc(F)c(Cl)cc3Cl)oc2=S)CC1" in this test?
## Result inactive

## Task Which outcome was entered for the molecule "Clc1ccc(Nc2ncnc3c2sc2ncccc23)c(Cl)c1" in this test?
## Result active

## Task Which outcome was entered for the molecule "O=C1c2ccccc2-c2ccccc2C1(Cl)Cl" in this test?
## Result active

## Task Which outcome was entered for the molecule "O=C(c1ccccc1)c1c2n(c3c1cc(O)c1ccccc13)CCN2" in this test?
## Result inactive

## Task Which outcome was entered for the molecule "O=C1Nc2c(ccc(Cl)c2Cl)/C1=C\c1cc(C(F)(F)F)cc(C(F)(F)F)c1" in this test?
## Result inactive

## Task Which outcome was entered for the molecule "Cc1nc2cc(Nc3nc(Nc4ccc(F)cc4)nc(N4CCCC4)n3)ccc2n1Cc1ccccc1" in this test?
## Result inactive

## Task Which outcome was entered for the molecule "CC/C(=C(/CC)c1ccc(O)cc1)c1ccc(O)cc1" in this test?
## Result inactive

## Task Which outcome was entered for the molecule "COc1cccc(/C=C2\CCc3ccccc3C2=O)c1" in this test?
## Result inactive

## Task Which outcome was entered for the molecule "NCCCCCCCCCn1c2c(c3ccccc3c1=O)C(=O)c1ccccc1-2" in this test?
## Result inactive

## Task Which outcome was entered for the molecule "COc1ccc2c(c1)C(=O)c1c-2c(OCCN2CCCCC2)nc2ccc(OC)cc12" in this test?
## Result inactive

## Task Which outcome was entered for the molecule "COc1ccc(Nc2ncccc2C(=O)NCc2cn(Cc3cccc(Oc4ccccc4)c3)nn2)c(OC)c1" in this test?
## Result active
